meta.source: the nanobody polyreactivity screen of Harvey et al. (2022)

- assay summary: yeast display, Sf9 membrane polyspecificity reagent, FACS + sequencing; frameworks hold sequencing errors
attribute measured: polyreactivity (PSR sort gate)

Solved entries (count: 6):
QVQLVESGGGLVQAGGSLRLSCAASGRIFRYNAMGWYRQAPGKERELVASINQRGGYTYYADSVKGRFTISRDNAKNTVYLQMNSLKPEDTAVYYCAADRPRGRETVYYWGQGTQVTVSS: high polyreactivity
QVQLVESGGGLVQAGGSLRLSCAASGNTFYRNAMGWYRQAPGKERELVAGISNGGSTNYEDSVKGRFTISRDNAKNSVYLQMNSLKPEDTAVYYFAKDEPKVSRAFDYWGQGTQVNVSS: low polyreactivity
QVQLVESGGGLVQAGGSLRLSCAASGYIFLANAMGWYRQAPGKERELVARIDTRGDSTYYADSVKGRFTISRDTAKNTVYLQMNSLKPEDTAVYYCAADQQTWWQYSLINEYDYWGQGTQLTVSS: low polyreactivity
QVQLVESGGGLVQAGGSLRLSCAASGRTFQFYAMGWYRPAPGKERELVAAITYSGDSTYYADSVKGRFTISRDNAKNTVYLQMNSLKPEDTAVYYCAAGVWFYWYEYDYWGQGTQVTVSS: high polyreactivity
QVQLEESGGGLVQAGGSLRLSCAASYAMGWYRQAPGKERELVATITRTDRTNYADSVKGRFTISRDNAKNTVYLQMNSLKPEDTAVYYCNKVDWSAPGDSPKYGYWGQGTQVTVSS: low polyreactivity
QVQLVESGGGLVQAGGSLRLSCAASGITVGYYAMGWYRLAPGKERELVAAITRGGGSTYYADSVKGRFTISRDNAKYTVYVQKNSLKPEDTAVYYCAAKTSGPGAGHDYWGQGTQVTVSS: high polyreactivity

Please examine the following record next.
Task: Tell me measured polyreactivity (PSR sort gate) for QVQLVESGGGLVQAGGSLRLSCAASGFIFYYDAMGWYIQAPGKERELVARIYSGRSTYYADSVKGRFTISRDNAKNTVYLQMNSLKPEDTAVYYCNATRLVWFSQGYDYWGQGTQVTVSS please.
Result: high polyreactivity

----------
- assay summary: yeast display, Sf9 membrane polyspecificity reagent, FACS + sequencing; frameworks hold sequencing errors
attribute measured: polyreactivity (PSR sort gate)

Solved entries (count: 5):
QVQLVESGGGLVQAGGSLRLSCAASGIIFRTYAMGCYRQAPVKERELVAAITGSGGITYYADSVKGRFTISRDNAKNTVYLQMNSLKPEDTAVYYCAARGTRDGVQRYGYWGQGSQVTVSS: high polyreactivity
QVHLVESGGGLVQAGGSLRLSCAASGSIFSDYAMGWYRQAPGKERELVAAITWSGGSTYYADSVKGRFTISRDNAKNTVYLQMNSLKPEDTAVYYCAARFGKVRDFRYAYLLEYDYWGQGTQVTVSS: low polyreactivity
QVQLVESGGGLVQAGGSLRLSSAASGTIFRSYSMGWSRQAPGKERELVASITWRGGRTYYADSVKGRFTISRDNAKNTVYLQMNSLKPEDTAVDFCAVLWTPAGGYYFRYDYWGQGTQVTVSS: low polyreactivity
QVQLVESGGGLVQAGGSLRLSCAASGFIFRAYAMGWYRQAPGKERELVAAISYSGGSTYYADSVKGRFTISRDNAKNTVYLQMNSLKPEDTAVYYCAALTIRVGSLGRDYWGQGTQVTVSS: low polyreactivity
QVQVVESGGGLVQAGGSLRLSCAASGSTFGHNAMGWYRQAPGKERELVAAIDSGDGTTYADSVKGRFTISRDNAKNTVYLQMNSLKPEDTAVYYCNADGLGGADPEYLWYPVPDYDYWGQGTQVTVSS: low polyreactivity

Task: Tell me measured polyreactivity (PSR sort gate) for EEELVESAVRLVQAGVSLRLSCAASAIIYAYNAMGWYRQAPGKESELVAAISSGDDTNYADSVKGRFTISRDNAKNTVYLQLNSLKPEDTAVYYCAAEVWTAFTHGSYWTVVDYDYWGQGTQVTVST please.
Result: low polyreactivity

Task: Tell me measured polyreactivity (PSR sort gate) for QVQLVESGGGLVQAGGSLRLSCAASGNIFGVYTMGWYRQAPGKERELVAAISDGGSTYYADSVKVRFTISRDNAKNTVYLQMNSLKPEDTAVYYCAASKIGYWGDYFRYYYWGQGTQVTVSS please.
Result: low polyreactivity

Task: Tell me measured polyreactivity (PSR sort gate) for QVQLVESGGGLVQAGGSLRLSCAASGITFRGYAMGWYRQAPGKERELVAAINSGGSTNYADAVKGRFTISRDNAKNTVYLQMNSLKPDDPAVYYCAADDYPYGNYYWGQGTQVTVSS please.
Result: high polyreactivity

Task: Tell me measured polyreactivity (PSR sort gate) for QVQLVESGGGLVQAGGSLRLSCAASGFIFYRYAMGWYRQAPGKERELVAAISRSGGSTYYADSVKGRFTISRDNAKNTVYLQMNSLKPEDTAVYYCAADRGSLAPGNDYWGQGNQVTVSS please.
Result: high polyreactivity

Task: Tell me measured polyreactivity (PSR sort gate) for QLQLVESGGGLVQAGGSLRLSCAASGSIFNDTAMGSYRQAPGKDRELVAAISWNGGSTYYADSVKGRFTISRDNAKNTVYLQMNSLKPQDTAVYYCAVYARYWYLLHYRYGYWGQGTQVTVSS please.
Result: low polyreactivity
